test system: mRNA expressed from the genes (A) to (D) in rat liver; experiment: Behavior of genes (mRNA expression level, oligo-DNA microarray) in rat liver after 28-day oral administration; format: in vivo; conditions: Gene No. 2546, Rn.24561, group (C)
EXPERIMENTAL_READOUT: Behavior of gene caused by administration of chemical substance

{"STRUCTURE_STRING": "Nc1ccc(N=Nc2ccccc2)cc1", "ASSAY_RESULT": "+"}
{"STRUCTURE_STRING": "CC(=O)Nc1cccc2c1-c1ccccc1C2", "ASSAY_RESULT": "−"}
{"STRUCTURE_STRING": "O=CCCCC=O", "ASSAY_RESULT": "−"}
{"STRUCTURE_STRING": "Cc1ccccc1[N+](=O)[O-]", "ASSAY_RESULT": "−"}
{"STRUCTURE_STRING": "C=CCc1ccc(OC)c(OC)c1", "ASSAY_RESULT": "−"}

Now for a further compound.
Task: Identify Behavior of gene caused by administration of chemical substance associated with the compound O=[N+]([O-])c1ccc2ccc3cccc4ccc1c2c34
Output: −
